Test system: stable HCV 1a RLuc replicon cells (genotype 1a H77 replicon)
Assay: microbe, parasite or virus in culture
Type: cell-based
Details: Hepatitis C virus, read-out: 1a (nM)

[
  {
    "Substance smiles": "COC[C@H]1C[C@@H](c2ncc(-c3ccc4c(c3)COc3cc5c(cc3-4)CCc3nc([C@@H]4CCCN4C(=O)[C@@H](NC(=O)OC)C(C)C)[nH]c3-5)[nH]2)N(C(=O)[C@H](NC(=O)OC)c2ccccc2)C1",
    "Tgt": "stable HCV 1a RLuc replicon cells (genotype 1a H77 replicon)",
    "EC50": "0.026 nM"
  },
  {
    "Substance smiles": "COC[C@H]1C[C@@H](c2nc3ccc4cc5c(cc4c3[nH]2)OCc2cc(-c3cnc([C@@H]4CCCN4C(=O)[C@@H](NC(=O)OC)C(C)C)[nH]3)ccc2-5)N(C(=O)[C@@H](NC(=O)OC)C(C)C)C1",
    "Tgt": "stable HCV 1a RLuc replicon cells (genotype 1a H77 replicon)",
    "EC50": "0.021 nM"
  }
]

----------
Test system: 1a Pi-Rluc replicon with Q30R in genotype 1a NS5A
Test: microbe, parasite or virus in culture
Format: cell-based, HCV
Conditions: Hepatitis C virus, read-out: 1a Q30R (nM)
Endpoint label: EC50 (nM)

[
  {
    "Substance smiles": "COC(=O)N[C@H](C(=O)N1CCC[C@H]1c1nc2c(ccc3cc4c(cc32)OCc2cc(-c3cnc([C@@H]5CCCN5C(=O)[C@H](NC(=O)OC)c5ccccc5)[nH]3)ccc2-4)[nH]1)C(C)C",
    "Tgt": "1a Pi-Rluc replicon with Q30R in genotype 1a NS5A",
    "Endpoint label": "EC50",
    "Measured result": 0.192
  },
  {
    "Substance smiles": "COC[C@H]1C[C@@H](c2ncc(-c3ccc4c(c3)COc3cc5c(ccc6nc([C@@H]7CCCN7C(=O)[C@H](NC(=O)OC)c7ccccc7)[nH]c65)cc3-4)[nH]2)N(C(=O)[C@@H](NC(=O)OC)[C@@H](C)OC)C1",
    "Tgt": "1a Pi-Rluc replicon with Q30R in genotype 1a NS5A",
    "Endpoint label": "EC50",
    "Measured result": 0.041
  },
  {
    "Substance smiles": "COC(=O)N[C@H](C(=O)N1C[C@@H](C)C[C@H]1c1ncc(-c2ccc3c(c2)COc2cc4c(ccc5nc([C@@H]6C[C@H](C)CN6C(=O)[C@@H](NC(=O)OC)C(C)C)[nH]c54)cc2-3)[nH]1)C(C)C",
    "Tgt": "1a Pi-Rluc replicon with Q30R in genotype 1a NS5A",
    "Endpoint label": "EC50",
    "Measured result": 0.057
  }
]

----------
Tested on: 1a Pi-Rluc replicon with Q30R in genotype 1a NS5A
Experiment: microbe, parasite or virus in culture
Assay type: cell-based, HCV
Details: Hepatitis C virus, read-out: 1a Q30R (nM)
This section presents compounds with their documented EC50 values.

[
  {
    "Compound": "COC[C@H]1C[C@@H](c2nc3c([nH]2)-c2cc4c(cc2CC3)-c2ccc(-c3cnc([C@@H]5CCCN5C(=O)[C@@H](NC(=O)OC)C(C)C)[nH]3)cc2CO4)N(C(=O)[C@H](NC(=O)OC)c2ccccc2)C1 [Example MR]",
    "Scale unit": "nM",
    "EC50": 0.128
  },
  {
    "Compound": "COC[C@H]1C[C@@H](c2ncc(-c3ccc4c(c3)COc3cc5c(ccc6nc([C@@H]7C[C@H]8C[C@H]8N7C(=O)[C@@H](NC(=O)OC)C(C)C)[nH]c65)cc3-4)[nH]2)N(C(=O)[C@H](NC(=O)OC)c2ccccc2)C1 [Example PR]",
    "Scale unit": "nM",
    "EC50": 0.045
  },
  {
    "Compound": "COC(=O)N[C@H](C(=O)N1[C@@H](C)CC[C@H]1c1nc2ccc3cc4c(cc3c2[nH]1)OCc1cc(-c2cnc([C@@H]3C[C@H](C)CN3C(=O)[C@H](NC(=O)OC)c3ccccc3)[nH]2)ccc1-4)C(C)C [Example QF]",
    "Scale unit": "nM",
    "EC50": 0.032
  },
  {
    "Compound": "COC(=O)N[C@H](C(=O)N1C[C@@H](COC(F)F)C[C@H]1c1nc2ccc3cc4c(cc3c2[nH]1)OCc1cc(-c2cnc(C3CCCN3C(=O)OC(C)(C)C)[nH]2)ccc1-4)C(C)C (stereo partly drawn) [Example PQ]",
    "Scale unit": "nM",
    "EC50": 0.106
  },
  {
    "Compound": "COC(=O)N[C@H](C(=O)N1CCC[C@H]1c1ncc(-c2ccc3c(c2)COc2cc4c(ccc5nc([C@@H]6C[C@H](C)CN6C(=O)[C@@H](NC(=O)OC)C(C)C)[nH]c54)cc2-3)[nH]1)C(C)C [Compound 526]",
    "Scale unit": "nM",
    "EC50": 0.095
  },
  {
    "Compound": "COC[C@H]1C[C@@H](c2nc3ccc4cc5c(cc4c3[nH]2)OCc2cc(-c3cnc([C@@H]4CC[C@H](C)N4C(=O)[C@@H](NC(=O)OC)C(C)C)[nH]3)ccc2-5)N(C(=O)[C@H](NC(=O)OC)c2ccccc2)C1 [Example NP]",
    "Scale unit": "nM",
    "EC50": 0.032
  },
  {
    "Compound": "COC(=O)N[C@H](C(=O)N1C[C@@H](C)C[C@H]1c1nc2ccc3cc4c(cc3c2[nH]1)OCc1cc(-c2cnc([C@@H]3C[C@H](C)CN3C(=O)[C@H](NC(=O)OC)c3ccccc3)[nH]2)ccc1-4)C(C)C [Example PG]",
    "Scale unit": "nM",
    "EC50": 0.043
  },
  {
    "Compound": "COC(=O)N[C@H](C(=O)N1[C@@H]2C[C@@H]2C[C@H]1c1nc2ccc3cc4c(cc3c2[nH]1)OCc1cc(-c2cnc([C@@H]3CCCN3C(=O)[C@H](NC(=O)OC)c3ccccc3)[nH]2)ccc1-4)C(C)C [Compound 536]",
    "Scale unit": "nM",
    "EC50": 0.048
  },
  {
    "Compound": "COC[C@H]1C[C@@H](c2ncc(-c3ccc4c(c3)COc3cc5c(ccc6nc([C@@H]7CC[C@H](C)N7C(=O)[C@@H](NC(=O)OC)[C@@H](C)OC)[nH]c65)cc3-4)[nH]2)N(C(=O)[C@@H](NC(=O)OC)C(C)C)C1 [Example PI]",
    "Scale unit": "nM",
    "EC50": 0.094
  }
]
